- TESTED_ON: human pIgR, full-length, on cells (human, UniProt P01833 19-764)
- Sequence (P01833 19-764): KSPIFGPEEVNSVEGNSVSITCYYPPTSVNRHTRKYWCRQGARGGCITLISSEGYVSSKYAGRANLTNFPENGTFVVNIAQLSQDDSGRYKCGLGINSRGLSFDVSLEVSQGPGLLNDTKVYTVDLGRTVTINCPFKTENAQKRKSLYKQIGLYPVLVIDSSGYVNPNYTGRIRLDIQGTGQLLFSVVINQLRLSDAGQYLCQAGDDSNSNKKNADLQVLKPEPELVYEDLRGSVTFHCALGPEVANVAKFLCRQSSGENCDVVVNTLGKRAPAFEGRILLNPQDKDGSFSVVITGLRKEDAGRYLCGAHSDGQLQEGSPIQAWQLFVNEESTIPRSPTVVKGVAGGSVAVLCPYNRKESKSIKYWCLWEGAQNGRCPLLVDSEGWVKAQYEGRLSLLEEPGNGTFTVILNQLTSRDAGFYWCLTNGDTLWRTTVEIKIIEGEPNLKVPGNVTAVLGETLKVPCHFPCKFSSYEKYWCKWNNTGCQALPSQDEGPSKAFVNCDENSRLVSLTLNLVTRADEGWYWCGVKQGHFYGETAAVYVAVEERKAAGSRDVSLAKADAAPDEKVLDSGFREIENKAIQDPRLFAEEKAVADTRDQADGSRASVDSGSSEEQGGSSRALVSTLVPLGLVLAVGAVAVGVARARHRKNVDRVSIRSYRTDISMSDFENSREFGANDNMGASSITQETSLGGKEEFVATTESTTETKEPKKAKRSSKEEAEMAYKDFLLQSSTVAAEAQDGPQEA
- ASSAY: cell-based or functional assay
Each item that follows carries a reported For. Trans. (Fold Incr.).
Express it in fold; write the number only.

// below: answered binders
[
  {
    "BINDER": "VHH10-linker-mono-Fc protein (Fc fusion, made in CHO cells; also called VHH10-mono-Fc; hpIgR_225) EVQVVESGGGLVQAGGSLRLSCAASGFTFTRYAMGWFRQAPGKERSFVAAISWSGSSAGYGDSVKGRFTISRDNAKNTLYLQMNSLKPEDTAVYYCAADPFNQGYWGQGTQVTVSSEPKTPKPQPQPQLQPQPNPTTESKSPKSPAPELLGGPSVFLFPPKPKDTLMISRTPEVTCVVVDVSHEDPEVKFNWYVDGVEVHNAKTKPREEQYNSTYRVVSVLTVLHQDWLNGKEYKCKVSNKALPAPIEKTISKAKGQPREPQVYTKPPSREEMTKNQVSLSCLVKGFYPSDIAVEWESNGQPENNYKTTVPVLDSDGSFRLASYLTVDKSRWQQGNVFSCSVMHEALHNHYTQKSLSLSPGK",
    "For. Trans. (Fold Incr.), fold": 1.3
  },
  {
    "BINDER": "VHH4-linker-mono-Fc protein (Fc fusion, also called VHH4-mono-Fc; hpIgR_073) EVQVVESGGGLVQAGGSLRLSCAVSGTSVSSNAMGWYRQAPGKQREWVGFIDRIATTTIATSVKGRFAITRDNAKNTVYLQMSGLKPEDTAVYYCNHPLTARWGQGTQVTVSSEPKTPKPQPQPQLQPQPNPTTESKSPKSPAPELLGGPSVFLFPPKPKDTLMISRTPEVTCVVVDVSHEDPEVKFNWYVDGVEVHNAKTKPREEQYNSTYRVVSVLTVLHQDWLNGKEYKCKVSNKALPAPIEKTISKAKGQPREPQVYTKPPSREEMTKNQVSLSCLVKGFYPSDIAVEWESNGQPENNYKTTVPVLDSDGSFRLASYLTVDKSRWQQGNVFSCSVMHEALHNHYTQKSLSLSPGK",
    "For. Trans. (Fold Incr.), fold": 15.1
  }
]

// switching to the query binder
Can you look up the measured For. Trans. (Fold Incr.) of VHH5-linker-mono-Fc protein (Fc fusion, made in CHO cells; also called VHH5-mono-Fc; hpIgR_175) QVQLVESGGGLVQAGGSLRLSCAASGRTFSSYAMGWFRQAPGKEREFVAAITWNGGTTYYADSVKGRFTISRDNAKNTVYLQMNSLKPEDTAVYYCAADPFNQGYWGQGTQVTVSSEPKTPKPQPQPQLQPQPNPTTESKSPKSPAPELLGGPSVFLFPPKPKDTLMISRTPEVTCVVVDVSHEDPEVKFNWYVDGVEVHNAKTKPREEQYNSTYRVVSVLTVLHQDWLNGKEYKCKVSNKALPAPIEKTISKAKGQPREPQVYTKPPSREEMTKNQVSLSCLVKGFYPSDIAVEWESNGQPENNYKTTVPVLDSDGSFRLASYLTVDKSRWQQGNVFSCSVMHEALHNHYTQKSLSLSPGK for me?
8.9

Origin of the recorded values: patent US20220324970A1
